// provenance: patent US9247741B2

Listing of entries alongside the reported melting point.
VALUE_KIND: melting point

| MOL_SMILES | OBS_VALUE |
| --- | --- |
| CC(C)CC[C@H]1[C@H](C)OC(=O)[C@@H](NC(=O)OC(C)(C)C)CCC[C@@H]1OCc1ccccc1 | 97 to 100 °C |
| CCCO[C@H]1CCC[C@H](NC(=O)c2nccc(OC)c2O)C(=O)O[C@@H](C)[C@@H]1CCC(C)C | 45 to 49 °C |
| COc1ccnc(C(=O)N[C@H]2CCC[C@H](OCc3ccccc3)[C@@H](CCC(C)C)[C@H](C)OC2=O)c1OC(C)=O | 58 to 62 °C |
| CCCO[C@H]1CCC[C@H](NC(=O)c2nccc(OC)c2OC(C)=O)C(=O)O[C@@H](C)[C@@H]1Cc1ccccc1 | 56 to 61 °C |

----------
System: Mycosphaerella graminicola; Anamorph: Septoria tritici
Test: Leaf blotch of wheat (SEPTTR) disease control on wheat seedlings
Assay type: in vivo
Conditions: Zymoseptoria tritici, 72 h; 3 Day Curative, 100 ppm (high volume), wheat; read-out: SEPTTR 3DC disease control rating
Listing of entries alongside the reported pest or weed control at 100 ppm.

| MOL_SMILES | pest or weed control at 100 ppm |
| --- | --- |
| COc1ccnc(C(=O)N[C@H]2CCC[C@H](Oc3ccccc3)[C@@H](CCC(C)C)[C@H](C)OC2=O)c1O | > 70% |
| CCCO[C@H]1CCC[C@H](NC(=O)c2nccc(OC)c2O)C(=O)O[C@@H](C)[C@@H]1Cc1ccccc1 | > 70% |
| CCCC[C@H]1[C@H](C)OC(=O)[C@@H](NC(=O)c2nccc(OC)c2O)CCC[C@@H]1OCCCC(F)(F)F | < 70% |
| CCCC[C@H]1[C@H](C)OC(=O)[C@@H](NC(=O)c2nccc(OC)c2O)CCC[C@@H]1Oc1ccccc1 | < 70% |
